# SYSTEM: murine Sn (Mus musculus)
# Sequence (Q62230 20-136 limits assumed): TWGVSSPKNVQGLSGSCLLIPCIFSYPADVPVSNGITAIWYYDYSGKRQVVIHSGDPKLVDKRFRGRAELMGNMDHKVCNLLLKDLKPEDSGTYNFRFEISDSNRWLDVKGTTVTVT
# SETUP CONDITIONS: inhibition of mSn-Fc chimera binding to natural-ligand beads; triplicate, ± SD
VALUE TYPE: IC50 (nM)
Answers are plain numbers, in nM.

q: Give murine Sn (Mus musculus) IC50 for CC(=O)NC1C(O)OC(CO)C(OC2OC(CO)C(O)C(OC3(C(=O)O)CC(O)C(NC(C)=O)C(C(O)C(O)CNC(=O)c4cc5c(s4)-c4ccccc4OC5)O3)C2O)C1O (stereo not shown)
a: 380

Reference source for all entries: paper PMC3462166
